# MFI HLA-A24 annotations
# systemTested: HLA-A*24:02 (Homo sapiens, UniProt P04439, D101N/D140Y/D185E/E176V/E190D/F33S/G103R/G107R/I119L/I121M/I306V/K335N/L105A/L180Q/L300P/N151K/N90K/Q86E/Q94H/R106L/R138H/R89G/T104I/T345S/V100E/W191G/Y123F)
# Assay type: binding
parameterMeasured: MFI HLA-A24

> print(dat)
                       substance  obsvalue
1  20 (HVLMHMMLEA) [compound 20]       1.3
2   40 (QYVLKVTSV) [compound 40]       1.3
3   17 (SILCAKQLV) [compound 17]       1.3
4  23 (YLLLEPEGII) [compound 23]       1.4
5  34 (FEVEDENMVL) [compound 34]       1.4
